# Test system: MDA-MB-468
# Test summary: phospho-S6 immunofluorescence (DAPI-normalised), per-plate z-score; higher = higher phospho-S6 signal (less pathway suppression)
# Run parameters: co-treatment: GDC0941 450 nM; 24 h
Structures can show the parent of a compound that is named as a salt.
Outcome measure: phospho-S6 immunofluorescence (z-score)
Lab note: jot the number down without any unit.

Example molecules with recorded phospho-S6 immunofluorescence (z-score):
Molecule: CSc1ccc2c(c1)N(CCC1CCCCN1C)c1ccccc1S2 (stereo not drawn) [Thioridazine (hydrochloride)] (compound 10 µM)
phospho-S6 immunofluorescence (z-score): -5.09
--
Molecule: CN1CCC(=C2c3ccccc3CCn3c(C=O)cnc32)CC1 [Alcaftadine] (compound 10 µM)
phospho-S6 immunofluorescence (z-score): -0.88
--
Molecule: CC[C@@H]1C(=O)OC[C@@H]1Cc1cncn1C [Pilocarpine (Hydrochloride)] (compound 10 µM)
phospho-S6 immunofluorescence (z-score): -0.79

# input Fill in the recorded phospho-S6 immunofluorescence (z-score) for this molecule, with MDA-MB-468 as test system: COc1cc2nc(N3CCN(C(=O)C4CCCO4)CC3)nc(N)c2cc1OC (stereo not drawn) [Terazosin (hydrochloride dihydrate)] (compound 10 µM)
# output 0.82

# input Fill in the recorded phospho-S6 immunofluorescence (z-score) for this molecule, with MDA-MB-468 as test system: CCCCC(=O)N(Cc1ccc(-c2ccccc2-c2nnn[nH]2)cc1)[C@H](C(=O)O)C(C)C [Valsartan] (compound 10 µM)
# output 0.04

# input Fill in the recorded phospho-S6 immunofluorescence (z-score) for this molecule, with MDA-MB-468 as test system: CC(C)OC(=O)CCC/C=C\C[C@@H]1[C@@H](CC[C@@H](O)CCc2ccccc2)[C@H](O)C[C@@H]1O [Latanoprost] (compound 10 µM)
# output 0.61

# input Fill in the recorded phospho-S6 immunofluorescence (z-score) for this molecule, with MDA-MB-468 as test system: COc1ccccc1N1CCN(CC(O)COc2cccc3ccccc23)CC1 (stereo not drawn) [Naftopidil] (compound 10 µM)
# output -0.13

# input Fill in the recorded phospho-S6 immunofluorescence (z-score) for this molecule, with MDA-MB-468 as test system: OCC1OC(n2cnc3c(NCCc4ccccc4)ncnc32)C(O)C1O (stereo not drawn) [N6-(2-Phenylethyl)adenosine] (compound 10 µM)
# output 0.87

---

# Test system: MDA-MB-468
# Test summary: phospho-S6 immunofluorescence (DAPI-normalised), per-plate z-score; higher = higher phospho-S6 signal (less pathway suppression)
# Run parameters: co-treatment: vehicle; 24 h
Measured phospho-S6 immunofluorescence (z-score) of individual entries
Lab note: jot the number down without any unit.

Compound: CN1N=C2CCN(C(=O)[C@@H](COCc3ccccc3)NC(=O)C(C)(C)N)C[C@@]2(Cc2ccccc2)C1=O [Capromorelin (Tartrate)] (compound 10 µM)
Study target: MDA-MB-468
phospho-S6 immunofluorescence (z-score): -0.14

Compound: OC[C@H]1O[C@@H](n2cnc3c(NCc4ccc(O)cc4)ncnc32)[C@H](O)[C@@H]1O [N6-(4-Hydroxybenzyl)adenosine] (compound 10 µM)
Study target: MDA-MB-468
phospho-S6 immunofluorescence (z-score): 0.96

Compound: CCC1(c2c[nH]cn2)Cc2ccccc2C1 [Atipamezole] (compound 10 µM)
Study target: MDA-MB-468
phospho-S6 immunofluorescence (z-score): 0.81

Compound: OC[C@@H](O)CN1CCN(c2ccccc2)CC1 [Levodropropizine] (compound 10 µM)
Study target: MDA-MB-468
phospho-S6 immunofluorescence (z-score): -0.68

Now for a further compound.
# input Given Cc1cccn2c(=O)c(-c3nnn[nH]3)cnc12 [Pemirolast (potassium)] (compound 10 µM) , state its recorded phospho-S6 immunofluorescence (z-score).
# output -1.33

---

# Tested on: MDA-MB-468
# Test summary: phospho-S6 immunofluorescence (DAPI-normalised), per-plate z-score; higher = higher phospho-S6 signal (less pathway suppression)
# Run parameters: co-treatment: lapatinib 1 uM; 24 h
Where a name gives a salt, the structure may show the parent alone.
Measured phospho-S6 immunofluorescence (z-score) of individual entries
Lab note: jot the number down without any unit.

Compound: CC(=O)Oc1cc2c(s1)CCN(C(C(=O)C1CC1)c1ccccc1F)C2 (centres undefined) [Prasugrel] (compound 10 µM)
Outcome measure: phospho-S6 immunofluorescence (z-score)
Test value: 1.92
//
Compound: CCOc1ccccc1OCCN[C@H](C)Cc1ccc(OC)c(S(N)(=O)=O)c1 [Tamsulosin] (compound 10 µM)
Outcome measure: phospho-S6 immunofluorescence (z-score)
Test value: 0.1
//
Compound: CCN(CC)Cc1ccc(C(=O)N(CCc2ccccc2OC)[C@@H]2CCNC2)cc1 (compound 10 µM)
Outcome measure: phospho-S6 immunofluorescence (z-score)
Test value: 0.1

Now for a further compound.
# input Given O=C(O)COCCN1CCN(C(c2ccccc2)c2ccc(Cl)cc2)CC1 (centres undefined) [Cetirizine (dihydrochloride)] (compound 10 µM) , state its recorded phospho-S6 immunofluorescence (z-score).
# output 0.74

---

# Tested on: MDA-MB-468
# Test summary: phospho-S6 immunofluorescence (DAPI-normalised), per-plate z-score; higher = higher phospho-S6 signal (less pathway suppression)
# Run parameters: co-treatment: lapatinib 1 uM; 24 h
Structures can show the parent of a compound that is named as a salt.
Note to self: class = bucket of phospho-S6 immunofluorescence (z-score), per low band: < -0.3; middle band: ≥ -0.3 and < 0.2; high band: ≥ 0.2

Worked examples follow.
Molecule: CC[C@@H]1C(=O)OC[C@@H]1Cc1cncn1C [Pilocarpine (Hydrochloride)] (compound 10 µM)
Assigned label: middle band
//
Molecule: CN(C)CCN(Cc1ccccc1)c1ccccn1 [Tripelennamine (hydrochloride)] (compound 10 µM)
Assigned label: low band
//
Molecule: Cc1ccc(OCC(O)C(C)NC(C)C)c2c1CCC2 (configuration not stated) [ICI 118,551 (hydrochloride)] (compound 10 µM)
Assigned label: low band
//
Molecule: O=C(NC(Cc1cc(=O)[nH]c2ccccc12)C(=O)O)c1ccc(Cl)cc1 (configuration not stated) [Rebamipide] (compound 10 µM)
Assigned label: high band
//
Molecule: O=C(O)CCCN1CCC(O[C@@H](c2ccc(Cl)cc2)c2ccccn2)CC1 [Bepotastine (Beslilate)] (compound 10 µM)
Assigned label: middle band
//
Molecule: COCc1nnc(N2CC(Oc3ccc(F)cc3Cl)C2)n1-c1ccc(OC)nc1 (compound 10 µM)
Assigned label: low band
//
Molecule: C[N+]1(C)[C@@H]2C[C@@H](OC(=O)C(O)(c3cccs3)c3cccs3)C[C@H]1[C@@H]1O[C@@H]12 [Tiotropium (Bromide)] (compound 10 µM)
Assigned label: high band
//
Molecule: CCC(=O)OCC(=O)[C@@]1(OC(=O)CC)[C@@H](C)C[C@H]2[C@@H]3CCC4=CC(=O)C=C[C@]4(C)[C@@]3(Cl)[C@@H](O)C[C@@]21C [Beclometasone dipropionate] (compound 10 µM)
Assigned label: high band
//
Molecule: CC(=O)Oc1cc(C(C)C)c(OCCN(C)C)cc1C [Moxisylyte (hydrochloride)] (compound 10 µM)
Assigned label: middle band
//
Molecule: O=S(=O)(c1ccccc1)c1cnc2c(N3CCNCC3)cccc2c1 (compound 10 µM)
Assigned label: low band

Shifting focus to the molecule that follows.
# input Into which bin does this molecule go? CN(C)CCCN1c2ccccc2Sc2ccc(Cl)cc21 [Chlorpromazine (hydrochloride)] (compound 10 µM)
# output low band

---

# System: MDA-MB-468
# Test summary: phospho-S6 immunofluorescence (DAPI-normalised), per-plate z-score; higher = higher phospho-S6 signal (less pathway suppression)
# Run parameters: co-treatment: lapatinib 1 uM; 24 h
Counter-ions that a name gives are not always drawn.
Measured phospho-S6 immunofluorescence (z-score) of individual entries
Lab note: jot the number down without any unit.

Compound: NCCc1ccc(O)c(O)c1 [Dopamine (hydrochloride)] (compound 10 µM)
Test value: 0.53

# input Given OC[C@@H](O)CN1CCN(c2ccccc2)CC1 [Levodropropizine] (compound 10 µM) , state its recorded phospho-S6 immunofluorescence (z-score).
# output 0.66

# input Given Cc1cc(NC(=O)Nc2ccc(N(C)C)cc2)c2cc(F)cc(F)c2n1 (compound 10 µM) , state its recorded phospho-S6 immunofluorescence (z-score).
# output -0.1

---

# Test system: MDA-MB-468
# Test summary: phospho-S6 immunofluorescence (DAPI-normalised), per-plate z-score; higher = higher phospho-S6 signal (less pathway suppression)
# Run parameters: co-treatment: vehicle; 24 h
Measured phospho-S6 immunofluorescence (z-score) of individual entries
Lab note: jot the number down without any unit.

Example molecules with recorded phospho-S6 immunofluorescence (z-score):
Molecule: CC(C)=CCC[C@](C)(O)[C@H]1CC[C@]2(C)[C@@H]1[C@H](O)C[C@@H]1[C@@]3(C)CC[C@H](O)C(C)(C)[C@@H]3[C@@H](O)C[C@]12C [(20S)-Protopanaxatriol] (compound 10 µM)
phospho-S6 immunofluorescence (z-score): -0.03

Molecule: C[C@H]1C[C@H]2[C@@H]3CCC4=CC(=O)C=C[C@]4(C)[C@H]3C(=O)C[C@]2(C)[C@@]1(O)C(=O)CO [Meprednisone] (compound 10 µM)
phospho-S6 immunofluorescence (z-score): -0.52

Molecule: CC[C@@H](Nc1c(Nc2cccc(C(=O)N(C)C)c2O)c(=O)c1=O)c1ccc(C)o1 (compound 10 µM)
phospho-S6 immunofluorescence (z-score): 2.26

Now for a further molecule.
# input Fill in the recorded phospho-S6 immunofluorescence (z-score) for this molecule, with MDA-MB-468 as test system: CCCCC(=O)N(Cc1ccc(-c2ccccc2-c2nnn[nH]2)cc1)[C@H](C(=O)O)C(C)C.CCOC(=O)[C@H](C)C[C@@H](Cc1ccc(-c2ccccc2)cc1)NC(=O)CCC(=O)O (compound 10 µM)
# output 0.21

Just for reference, the supplement of paper PMC7411640 is where these values come from.
